These entries and their values trace back to PubChem BioAssay.

Below, each entry is listed alongside its reported inhibition.
assay.overview: yeast transport mutant growth inhibition pilot in 384-well plates, post-Golgi transport modulator project (AID 636)
reported.conditions: absorbance 615 nm, about 18 h, stronger effect = higher value
Field: numeric (%). Do not append units.

Example results:
compound	reported.value
Cc1ccc(N=Cc2ccc[nH]2)c(O)c1	-2.56
COc1ccc2c(c1)CCc1cc(C(=O)N3CCN(c4ccc(N5CCOCC5)nn4)CC3)sc1-2	-3.08

Briefly, inhibition measured for COc1ccc(C(C)N2CC34C=CC(O3)C(C(=O)OCC(C)C)C4C2=O)cc1 (stereo not drawn) : -4.27

----------
assay.overview: yeast transport mutant growth inhibition pilot in 384-well plates, post-Golgi transport modulator project (AID 636)
reported.conditions: absorbance 615 nm, about 18 h, stronger effect = higher value
The compounds listed here are annotated with their inhibition.
Unit % implied. Number only.

compound	reported.value
NC(=O)c1sc2nc(N3CCCCC3)c3c(c2c1N)CCCC3	-6.89
CCOC(=O)c1sc2nc(NC(=O)C(C)(C)C)sc2c1C	-3.73
CCOc1ccccc1NC(=O)CSc1nnc(Cc2cccn2C)n1-c1ccc(F)cc1	-1.28
COc1ccc(-c2nc(CCNC(=O)c3ccco3)cs2)cc1OC	-4.67
Cc1ccccc1NC(=O)C1CCCN(S(=O)(=O)c2cnc[nH]2)C1 (stereo unspecified)	-3.87
O=c1[nH]c(SCc2ccc(F)cc2)nc2c1cnn2-c1ccc(F)cc1	1.87
Cc1cc(NC(=O)c2cccc(S(=O)(=O)N3CC(c4ccccc4)CC3=O)c2)no1 (stereo unspecified)	-6.4
CCOc1ccc(S(=O)(=O)n2c(C)nc3ccccc32)cc1	0.51

Data point: CC(C)CNc1oc(-c2ccc(F)cc2)nc1C#N ; inhibition = -7.47

Record CCCSc1nnc2nc3c(nn12)c1ccccc1n3C . Reported inhibition: -0.27

Consider COc1ccc(NC(=O)c2cnc3n(c2=O)CCS3)cc1OC . Its measured inhibition is -3.07

----------
Measured viability values are reported for all entries that follow.
assay.overview: reduced viability of SK-BR-3 breast cancer cells – cell-based, 24 h, human, pilot screen (AID 572);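 also: compound exposure lasted between 18 and 24 h rather than exactly 24 h; 100% = carrier-treated control wells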
reported.conditions: SK-BR-3 viability, CellTiter-Glo luminescence, at 10 µM, stronger effect = lower value
Please give a number only; it is taken to be in %.

molecule	viability, %
CCN1CCN(C(=O)C2CC(c3ccc(F)cc3)=NO2)CC1 (stereo unspecified)	91.5
CCn1c(SCC(=O)Nc2ccc(Cl)cc2)nnc1C1CC1	92.5
Clc1c(CSc2nc3ccccc3o2)nc2sccn12	116
COc1ccccc1N(CC(=O)Nc1cccnc1)S(C)(=O)=O	94.5
Cc1ccc(-c2noc(CN3CCN(c4ccccc4F)CC3)n2)cc1	89.5

Note: attention shifts to another entry.
Form field viability, entry CCOc1cccc(OCCCCn2ccnc2)c1 : 87

----------
assay.overview: Her2 expression decrease, cell viability multiplex – SKBR3 breast tumor cells, AlphaScreen, ATP viability, primary screen (AID 461);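 also: percent of carrier control wells set as 100% viability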
reported.conditions: SKBR3 Her2 protein level, 18-24 h, measured here: SKBR3 viability, ATP luminescence, at 10 µM
Under this convention, 1.0 denotes viability strictly below 90% and 0.0 denotes viability at or above 90%.

Example cases with answers are listed next.
compound	class
CCN1CCN(CCCNC(=O)c2cc3sccc3n2CC)CC1	0.0
CC1=C(C(=O)N2CCCCC2)C(c2cccs2)C2=C(CCCC2=O)N1 (stereo unspecified)	0.0
CCOC(=O)N1CCN(c2cc(=O)n(-c3ccccc3Cl)c(=O)[nH]2)CC1	0.0
COC(=O)CSC1=C(C#N)C(c2ccc(F)cc2)CC(=O)N1 (stereo unspecified)	0.0
O=C(Cn1nc(Cc2cccnc2)c2ccccc2c1=O)NCC1CCCO1 (stereo unspecified)	0.0
Nc1nc2n(n1)C(c1c(F)cccc1Cl)CC(c1ccc(F)cc1)N2 (stereo unspecified)	0.0

// query Threshold test, viability < 90%: CC1CN(c2ccc(Oc3ccccc3)cc2)c2nc3c(c(=O)n(CC(N)=O)c(=O)n3C)n2C1 (stereo unspecified)
// result 0.0

// query Check if viability falls below 90% for COC1CCCCC1Nc1cccc(SC)c1 (stereo unspecified) .
// result 0.0

// query Please state whether viability is below 90% for Cc1ccc(S(=O)(=O)N2CCC(C(=O)N3CCN(Cc4ccccc4)CC3)CC2)cc1
// result 0.0

// query Bench note: check whether CC1CCc2nn(CC(=O)N3CCN(C(=O)c4ccco4)CC3)cc2C1 (stereo unspecified) shows viability below 90%
// result 1.0

// query Given CC(C)(C)SCCNC(=O)CSc1ccccc1 , is recorded viability strictly lower than 90%?
// result 0.0

// query For this compound, is viability lower than 90%? Cc1ccc(-c2nc3cc(NC(=O)C(C)C)ccc3o2)cc1
// result 1.0
